assaySystem: SARS-CoV-2 Mac1 (Severe acute respiratory syndrome coronavirus 2, UniProt P0DTD1)
measurementNotes: biochemical
conditionSummary: read-out: %inhibition
Counter-ions that a name gives are not always drawn.
property: inhibition at 100 µM (%)
The reply should be a number in %, with the unit left off.

Q. Quick check: inhibition at 100 µM of CN1CCC[C@H]1c1cccnc1 [Nicotine Ditartrate] ?
A. 0

Q. Reported inhibition at 100 µM, compound CN1CCC(=C2c3ccccc3CCc3sccc32)CC1 [Pizotifen Malate] : ____
A. 0

Q. What does the record list as inhibition at 100 µM for CC[C@@H]([C@H](C)O)n1ncn(-c2ccc(N3CCN(c4ccc(OC[C@@H]5CO[C@@](Cn6cncn6)(c6ccc(F)cc6F)C5)cc4)CC3)cc2)c1=O ?
A. 37.1

Q. # inhibition at 100 µM lookup, item C[N+]1(C)CCC(OC(=O)C(O)(c2ccccc2)C2CCCC2)C1 (stereo not drawn) [Glycopyrrolate]
A. 0

Q. For N#C[C@@H]1C[C@H]2C[C@H]2N1C(=O)[C@@H](N)[C@@]12C[C@@H]3C[C@@H](C[C@@](O)(C3)C1)C2 , what is its reported inhibition at 100 µM?
A. 12.8

Q. Look at this compound and give its reported inhibition at 100 µM. O=C(c1ccc(F)cc1)C1CCN(CCn2c(=O)[nH]c3ccccc3c2=O)CC1
A. 11.6

Q. GET /values?readout=inhibition at 100 µM&item= CC1(C)S[C@@H]2[C@H](NC(=O)COc3ccccc3)C(=O)N2[C@H]1C(=O)O [Penicillin V potassium salt]
A. 0

Q. # get_value(readout='inhibition at 100 µM', item= COC(=O)[C@@H]1CC2=CC(=O)CC[C@]2(C)[C@@]23O[C@@H]2C[C@@]2(C)[C@@H](CC[C@@]24CCC(=O)O4)[C@H]13 )
A. 3.58

Q. Record request: inhibition at 100 µM value, item C[C@H](NC(=O)C(=O)Nc1ccccc1C(C)(C)C)C(=O)N[C@@H](CC(=O)O)C(=O)COc1c(F)c(F)cc(F)c1F
A. 21

Q. inhibition at 100 µM for CCN1CCN(c2cc3c(cc2F)c(=O)c(C(=O)O)cn3C2CC2)CC1 ?
A. 16.9

Q. Dear colleague, I am looking for the recorded inhibition at 100 µM of the following compound: CCCNS(=O)(=O)Nc1ncnc(OCCOc2ncc(Br)cn2)c1-c1ccc(Br)cc1
A. 10

Q. Looking for the measured inhibition at 100 µM of CNCC(=O)c1ccc(O)c(O)c1 [Adrenalone HCl] , can you help?
A. 6.88

Q. So what does the record say about inhibition at 100 µM for CC1CCc2c(N3CCC(O)CC3)c(F)cc3c(=O)c(C(=O)O)cn1c23 (stereo not drawn) ?
A. 0

Q. Requested read-out: inhibition at 100 µM. Entry: C=CCNC1=C2C[C@@H](C)C[C@H](OC)[C@H](O)[C@@H](C)/C=C(\C)[C@H](OC(N)=O)[C@@H](OC)/C=C\C=C(/C)C(=O)NC(=CC1=O)C2=O
A. 3.81

Q. For the compound C#C[C@]1(O)CC[C@H]2[C@@H]3CCC4=CC(=O)CC[C@@H]4[C@H]3C(=C)C[C@@]21CC , what inhibition at 100 µM is on record?
A. 0

Q. Please look up its inhibition at 100 µM: C[C@@H]1O[C@@H](O[C@H]2C[C@@H](O)[C@]3(CO)[C@H]4[C@H](O)C[C@]5(C)[C@@H](C6=CC(=O)OC6)CC[C@]5(O)[C@@H]4CC[C@]3(O)C2)[C@H](O)[C@H](O)[C@H]1O
A. 0

Q. Looking for the measured inhibition at 100 µM of NC(=O)Cc1cccc(C(=O)c2ccccc2)c1N , can you help?
A. 0

Q. Suppose we examine the compound O=C(OCc1ccccc1)c1ccccc1 [Benzyl benzoate] ; what inhibition at 100 µM value has been reported?
A. 0

Q. Which inhibition at 100 µM is reported for this compound? CCCC[N+]1(C)[C@@H]2C[C@@H](OC(=O)[C@H](CO)c3ccccc3)C[C@H]1[C@@H]1O[C@@H]12 (stereo partly drawn) [Butylscopolamine Bromide]
A. 0

Q. # query: inhibition at 100 µM of entry N#Cc1cc(-c2n[nH]c(-c3ccncc3)n2)ccn1
A. 0

Q. Reported inhibition at 100 µM for CC[C@]1(O)C[C@@H]2CN(CCc3c([nH]c4ccccc34)[C@@](C(=O)OC)(c3cc4c(cc3OC)N(C)[C@H]3[C@@](O)(C(=O)OC)[C@H](OC(C)=O)[C@]5(CC)C=CCN6CC[C@]43[C@@H]65)C2)C1 [Vinblastine sulfate] : what is it?
A. 1.94

Q. Bench note: what inhibition at 100 µM did CCCCc1oc2ccc(NS(C)(=O)=O)cc2c1C(=O)c1ccc(OCCCN(CCCC)CCCC)cc1 [Dronedarone HCl] show?
A. 0

Q. Consider the compound shown here: CCCNC(=O)NS(=O)(=O)c1ccc(Cl)cc1 [Chlorpropamide] What is its recorded inhibition at 100 µM?
A. 0

Q. Consider the compound shown here: CC1(C)NC(=O)N(c2ccc([N+](=O)[O-])c(C(F)(F)F)c2)C1=O [Nilutamide] What is its recorded inhibition at 100 µM?
A. 3.89

Q. Given the entry Clc1ccc(Nc2nnc(Cc3ccncc3)c3ccccc23)cc1 [Vatalanib (PTK787) 2HCl] , report its measured inhibition at 100 µM.
A. 0

Q. Would you mind telling me what inhibition at 100 µM value was observed for O=C(Nc1nc2cccc(-c3ccc(CN4CCS(=O)(=O)CC4)cc3)n2n1)C1CC1 ?
A. 17

Q. Which inhibition at 100 µM value is on record for NC[C@H](O)c1ccc(O)c(O)c1 [Noradrenaline bitartrate monohydrate] ?
A. 18.9

Q. # inhibition at 100 µM lookup, item CCN(CC)C(=O)[C@]1(c2ccccc2)C[C@@H]1CN (racemic) [Milnacipran HCl]
A. 0

Q. Param item = Cc1ccc(O)c([C@H](CCN(C(C)C)C(C)C)c2ccccc2)c1 [Tolterodine tartrate] ; retrieve measured inhibition at 100 µM.
A. 34.1

Q. Which measured inhibition at 100 µM value corresponds to Cn1c(=O)cc(N2CCC[C@@H](N)C2)n(Cc2ccccc2C#N)c1=O ?
A. 12.8

Data provenance is paper doi:10.1101/2021.10.07.463234v2.
